Method: Therapeutic index, ratio of IC50 for Wistar rat hepatocytes to IC50 for Plasmodium falciparum HB3
Format: cell-based, Hepatocyte
Measure: selectivity ratio
Give bare numbers.

Q: Look up selectivity ratio for this compound: CC(C)(C)NCc1cc(Nc2ccnc3cc(Cl)ccc23)ccc1Cl
A: 11900

====

Subject Of Test: Cytochrome P450 3A4 (Homo sapiens, UniProt P08684)
Sequence (P08684 whole entry): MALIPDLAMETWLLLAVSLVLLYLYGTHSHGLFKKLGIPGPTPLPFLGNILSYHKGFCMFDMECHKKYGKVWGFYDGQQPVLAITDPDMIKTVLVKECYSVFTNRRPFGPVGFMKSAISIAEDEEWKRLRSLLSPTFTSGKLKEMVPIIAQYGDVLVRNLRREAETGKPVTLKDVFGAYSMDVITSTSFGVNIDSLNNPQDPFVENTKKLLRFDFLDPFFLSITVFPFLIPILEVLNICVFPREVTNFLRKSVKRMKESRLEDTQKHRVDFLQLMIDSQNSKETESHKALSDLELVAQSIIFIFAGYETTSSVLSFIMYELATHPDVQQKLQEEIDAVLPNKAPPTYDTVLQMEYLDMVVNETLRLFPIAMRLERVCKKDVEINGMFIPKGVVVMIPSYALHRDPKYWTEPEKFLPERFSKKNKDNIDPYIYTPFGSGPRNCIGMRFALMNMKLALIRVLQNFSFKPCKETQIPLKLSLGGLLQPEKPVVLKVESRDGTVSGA
Method: Inhibition of human CYP3A4 using DEF substrate
Format: ADME
Measure: IC50 (µM)
Answers are plain numbers, in µM.

CCNCc1cc(Nc2ccnc3cc(Cl)ccc23)ccc1O [DESETHYL AMODIAQUINE]    24

Here's the next entry for you.
Q: Look up IC50 for this compound: CCN(CC)Cc1cc(Nc2ccnc3cc(Cl)ccc23)ccc1O.Cl
A: 28

====

Method: Elimination half life in mouse at 10 mg/kg, po administered as single dose
Format: ADME, organism-based
Design: dose 10 mg/kg, route oral
Condition Context: in vivo, read-out: beta t1/2 (converted)
Measure: half-life (h)
Answers are plain numbers, in h.

Q: Look up half-life for this compound: CC(C)(C)NCc1cc(Nc2ccnc3cc(Cl)ccc23)ccc1F
A: 7

====

System: Plasmodium falciparum
Method: Antimalarial activity against […] Plasmodium falciparum Dd2
Assay type: functional, organism-based
Measure: pIC50
One number for each entry, as −log10 of the molar value.

Fc1ccc(Nc2ccnc3cc(Cl)ccc23)cc1CN1CCCC1    7.43

Here's the next entry for you.
Q: Look up pIC50 for this compound: CC(C)(C)NCc1cc(Nc2ccnc3cc(Cl)ccc23)ccc1F
A: 7.65

====

Subject Of Test: Cytochrome P450 3A4 (Homo sapiens, UniProt P08684)
Method: Inhibition of human CYP3A4 using DEF substrate
pIC50: −log10 of the molar value.
Measure: pIC50

CCN(CC)Cc1ccc(Nc2ccnc3cc(Cl)ccc23)cc1O    < 4.00

Q: Look up pIC50 for this molecule: CC(C)(C)NCc1cc(Nc2ccnc3cc(Cl)ccc23)ccc1F
A: < 4.00

====

Test system: Plasmodium falciparum
Method: Antimalarial activity against chloroquine-sensitive Plasmodium falciparum HB3
Type: functional, organism-based
Measure: log10 IC50 (log10 of the value in nM)
// stored as log10 of IC50 expressed in nM

Fc1ccc(Nc2ccnc3cc(Cl)ccc23)cc1CN1CCCC1    1.80

Field: log10 IC50. Fill in for each record below.
1. CCCCN(CCCC)Cc1cc(Nc2ccnc3cc(Cl)ccc23)ccc1Cl
2. CC(C)(C)NCc1cc(Nc2ccnc3cc(Cl)ccc23)ccc1F
3. CCN1CCN(Cc2cc(Nc3ccnc4cc(Cl)ccc34)ccc2Cl)CC1
4. CC(C)N1CCN(Cc2cc(Nc3ccnc4cc(Cl)ccc34)ccc2Cl)CC1
5. CN1CCN(Cc2cc(Nc3ccnc4cc(Cl)ccc34)ccc2Cl)CC1
6. CCN(CC)Cc1cc(Nc2ccnc3cc(Cl)ccc23)ccc1O.Cl

A:
1: 2.16; 2: 1.16; 3: 0.98; 4: 0.96; 5: 1.74; 6: 0.74

Field: log10 IC50. Fill in for each record below.
1. CC(C)(C)NCc1cc(Nc2ccnc3cc(Cl)ccc23)ccc1Cl
2. Clc1ccc2c(Nc3ccc(Cl)c(CN4CCCCC4)c3)ccnc2c1
3. O=C(NCc1cc([N+](=O)[O-])ccc1F)c1ncc[nH]1
4. Clc1ccc2c(Nc3ccc(Cl)c(CN4CCCC4)c3)ccnc2c1
5. Clc1ccc2c(Nc3ccc(Cl)c(CN4CCN(c5ccccn5)CC4)c3)ccnc2c1
6. CCN(CC)Cc1cc(Nc2ccnc3cc(Cl)ccc23)ccc1Cl

A:
0.91
1.09
1.00
1.18
2.69
1.09

====

Subject Of Test: Cytochrome P450 2C19 (Homo sapiens, UniProt P33261)
Sequence (P33261 whole entry): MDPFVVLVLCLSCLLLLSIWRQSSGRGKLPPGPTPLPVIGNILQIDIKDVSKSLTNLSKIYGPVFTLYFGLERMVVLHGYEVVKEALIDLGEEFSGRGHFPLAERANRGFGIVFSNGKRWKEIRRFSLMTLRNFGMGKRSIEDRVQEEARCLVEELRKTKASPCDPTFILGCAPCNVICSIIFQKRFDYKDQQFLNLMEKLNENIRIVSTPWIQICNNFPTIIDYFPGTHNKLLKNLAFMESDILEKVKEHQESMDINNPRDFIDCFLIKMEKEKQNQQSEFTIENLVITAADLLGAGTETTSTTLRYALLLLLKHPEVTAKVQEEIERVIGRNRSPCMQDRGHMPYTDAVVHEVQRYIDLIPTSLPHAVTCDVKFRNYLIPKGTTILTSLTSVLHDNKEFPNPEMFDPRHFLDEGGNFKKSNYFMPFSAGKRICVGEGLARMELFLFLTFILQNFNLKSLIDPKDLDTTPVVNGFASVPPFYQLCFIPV
Measure: pIC50
Answers are plain numbers, as −log10 of the molar value.

Q: Look up pIC50 for this compound: CC(C)(C)NCc1cc(Nc2ccnc3cc(Cl)ccc23)ccc1F
A: 4.19

====

Please provide measured IC50 for the entries that follow.
Subject Of Test: β-hematin formation (no protein target)
Method: Inhibition of beta-hematin formation as molar equivalent relative to hemin causing blockade in BHIA
Answers are plain numbers, in molar ratio.

Some compounds with recorded IC50:
Clc1ccc2c(Nc3cccc(Cn4ccnc4)c3)ccnc2c1    2.65
CC(C)(C)NCc1cccc(Nc2ccnc3cc(Cl)ccc23)c1    1.65
Fc1ccc(Nc2ccnc3cc(Cl)ccc23)cc1Cn1ccnc1    1.78
CC(C)N1CCN(Cc2cc(Nc3ccnc4cc(Cl)ccc34)ccc2Cl)CC1    1.66

Here's the next entry for you.
Q: Look up IC50 for this compound: CC(C)(C)NCc1cc(Nc2ccnc3cc(Cl)ccc23)ccc1Cl
A: 1.66

====

Please provide measured logD for the entries that follow.
Method: Distribution coefficient, log D at pH 7.4
Condition Context: octanol/water
Numbers only.

Some molecules with recorded logD:
CCN(CC)Cc1cc(Nc2ccnc3cc(Cl)ccc23)ccc1O.Cl    3.08
CC(C)(C)NCc1cc(Nc2ccnc3cc(Cl)ccc23)ccc1Cl    3

Q: Look up logD for this molecule: CC(C)(C)NCc1cc(Nc2ccnc3cc(Cl)ccc23)ccc1F
A: 2.4

====

Test system: Heme
Method: Binding affinity to heme assessed as binding constant for stepwise binding of 2 molecules of heme to 1 equivalent of drug in presence of 40% DMSO by UV-visible spectroscopy
We label by threshold. Values of log Ks strictly beneath 4 are yes. Values of 4 and up are no.

CCN(CC)Cc1cc(Nc2ccnc3cc(Cl)ccc23)ccc1O.Cl    no
CC(C)(C)NCc1cc(Nc2ccnc3cc(Cl)ccc23)ccc1F    no
c1ccncc1    yes

Then this compound:
Q: Does this compound meet the criterion log Ks < 4? OC(c1cc(C(F)(F)F)nc2c(C(F)(F)F)cccc12)C1CCCCN1 (stereo not given)
A: yes

====

Method: Toxicity in po dosed mouse assessed as drug level causing no observed adverse effects administered as once daily for 4 days
Assay type: organism-based
Condition Context: in vivo, read-out: Activity
Measure: NOAEL at 96 h (mg/kg)
Answers are plain numbers, in mg/kg.

Some compounds with recorded NOAEL at 96 h:
CCN(CC)CCCC(C)Nc1ccnc2cc(Cl)ccc12 (stereo not drawn) [CHLOROQUINE]    300
CC(C)(C)NCc1cc(Nc2ccnc3cc(Cl)ccc23)ccc1F    100

Q: Look up NOAEL at 96 h for this compound: CCN(CC)Cc1cc(Nc2ccnc3cc(Cl)ccc23)ccc1O.Cl
A: 100

====

Method: Clearance in iv dosed rat
Assay type: ADME, organism-based
Condition Context: in vivo
Please provide measured clearance for the entries that follow.
Give bare numbers, in mL/min/kg.

CC(C)(C)NCc1cc(Nc2ccnc3cc(Cl)ccc23)ccc1F    35
CCNCc1ccc(Nc2ccnc3cc(Cl)ccc23)cc1O    61.5

Here's the next entry for you.
Q: Look up clearance for this compound: CCN(CC)Cc1ccc(Nc2ccnc3cc(Cl)ccc23)cc1O
A: 89.2

Reference source: ChEMBL document CHEMBL1153384
